Recorded values, source patent US20120129811A1.

Attribute: pKd
Target: proMMP9(20-445;ΔFnII) (SEQ ID NO:6) (Homo sapiens, UniProt P14780, DEL216-390)
Construct: start methionine (N)
Sequence (P14780 with tags, fused parts or gaps DEL216-390): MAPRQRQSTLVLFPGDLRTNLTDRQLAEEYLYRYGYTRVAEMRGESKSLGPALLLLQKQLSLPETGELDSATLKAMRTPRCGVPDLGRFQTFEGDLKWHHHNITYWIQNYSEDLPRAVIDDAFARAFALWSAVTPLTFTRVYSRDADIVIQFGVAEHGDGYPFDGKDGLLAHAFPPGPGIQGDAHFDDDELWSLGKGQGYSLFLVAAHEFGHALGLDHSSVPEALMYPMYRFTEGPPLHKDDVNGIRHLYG
Assay: ThermoFluor binding assay with proMMP9(20-445;ΔFnII)
Method: The ThermoFluor® (TF) assay is a 384-well plate-based binding assay that measures thermal stability of proteins (Biomol Screen 2001, 6, 429-40; Biochemistry 2005, 44, 5258-66). The experiments were carried out using instruments available from Johnson & Johnson Pharmaceutical Research & Development, LLC. TF dye used in all experiments was […] (1,8-ANS) (Invitrogen: A-47). […]
Just so you know, pKd here is -log10 of the concentration in molar units; reply with that number alone.

> print(dat)
                                  cpd.smiles                           measured.target  endpoint.result
 1  COc1ccc(S(N)(=O)=O)cc1Nc1nc2c(ccc3cnccc32)s1  proMMP9(20-445;ΔFnII) (SEQ ID NO:6) (Homo sapiens, UniProt P14780, DEL216-390)             5.11
 2  Cc1nc2ccc3sc(Nc4cc(S(N)(=O)=O)ccc4OC(C)C)nc3c2n1CC(F)(F)F  proMMP9(20-445;ΔFnII) (SEQ ID NO:6) (Homo sapiens, UniProt P14780, DEL216-390)             6.11
 3       COc1ccc(N)cc1Nc1nc2c(ccc3c2ncn3C)s1  proMMP9(20-445;ΔFnII) (SEQ ID NO:6) (Homo sapiens, UniProt P14780, DEL216-390)             5.49
 4         CCOc1ccccc1Nc1nc2c(ccc3c2ncn3C)s1  proMMP9(20-445;ΔFnII) (SEQ ID NO:6) (Homo sapiens, UniProt P14780, DEL216-390)             5.64
 5    COc1c(F)cc(F)cc1Nc1nc2c(ccc3c2ncn3C)s1  proMMP9(20-445;ΔFnII) (SEQ ID NO:6) (Homo sapiens, UniProt P14780, DEL216-390)             5.92
 6  Cn1ccc2c3nc(Nc4cc(S(N)(=O)=O)ccc4OC(F)(F)F)sc3ccc21  proMMP9(20-445;ΔFnII) (SEQ ID NO:6) (Homo sapiens, UniProt P14780, DEL216-390)             6.37
 7  CC(C)Oc1ccc(S(C)(=O)=O)cc1Nc1nc2c(ccc3ncn(CC(F)(F)F)c32)s1  proMMP9(20-445;ΔFnII) (SEQ ID NO:6) (Homo sapiens, UniProt P14780, DEL216-390)             5.51
 8  CCn1ncc2c3nc(Nc4cc(S(C)(=O)=O)ccc4OC)sc3ccc21  proMMP9(20-445;ΔFnII) (SEQ ID NO:6) (Homo sapiens, UniProt P14780, DEL216-390)             6.22
 9      CC(C)Oc1ccccc1Nc1nc2c(ccc3c2ncn3C)s1  proMMP9(20-445;ΔFnII) (SEQ ID NO:6) (Homo sapiens, UniProt P14780, DEL216-390)             5.43
10  COc1ccc(S(C)(=O)=O)cc1Nc1nc2c(ccc3c2ccn3C)s1  proMMP9(20-445;ΔFnII) (SEQ ID NO:6) (Homo sapiens, UniProt P14780, DEL216-390)             6.38

# pKd (molecule: `COc1ccc(S(C)(=O)=O)cc1Nc1nc2c(ccc3cnccc32)s1` ) is 5.36

// pKd lookup, molecule = `CC(C)Oc1ccc(C(N)=O)cc1Nc1nc2c(ccc3[nH]c(N)nc32)s1` , result: 5.89

Lab book: pKd of `CCn1cc2c(ccc3sc(Nc4cc(S(C)(=O)=O)ccc4OC)nc32)n1` noted as 5.17

pKd reading for `CC(C)Oc1ccc(S(C)(=O)=O)cc1Nc1nc2c(ccc3c2ncn3C)s1` : 5.85

The value of pKd measured for the molecule `CCn1c(C)nc2c3nc(Nc4cc(C(N)=O)ccc4OC(C)C)sc3ccc21` turned out to be 6.92

# pKd of `COc1ccc(F)cc1Nc1nc2c(ccc3ncn(C)c32)s1` = 5.37

Quick note, pKd for `CC(C)Oc1ccc(C(N)=O)cc1Nc1nc2c(ccc3[nH]c(CO)nc32)s1` landed at 6.39

pKd reported for this molecule `CC(C)Oc1ccc(C(=O)O)cc1Nc1nc2c(ccc3[nH]c(N)nc32)s1` : 6.03
